Test system: human bronchial epithelial cells, CFTR corrector, plate reader
Experiment Summary: rescue of ΔF508 CFTR function, airway epithelium – human bronchial epithelial cells, plate reader, cherry-pick, two tests, dose response (AID 743267)
Measurement Context: measured here: test 1 replicate run
Recorded log10(AC50) by entry
Endpoint Label: log10(AC50) (log10 of the value in µM)

INSERT INTO measurements (chemical_structure, reading) VALUES
  ('CN1c2ccc(-c3ccc(F)cc3)cc2[C@H]2[C@H](CCN2S(=O)(=O)c2ccc(F)cc2)[C@H]1CO', 0.82),
  ('C[C@H]1CN([C@@H](C)CO)S(=O)(=O)c2ccc(-c3ccc(C#N)cc3)cc2O[C@@H]1CN(C)Cc1ccccn1', 0.53),
  ('COc1ccc(S(=O)(=O)N2CC[C@@H]3[C@@H](CO)Nc4ccc(-c5ccc(C#N)cc5)cc4[C@@H]32)cc1', 0.20),
  ('Cc1ccc(-c2ccc3c(c2)O[C@H](CN(C)Cc2ccccn2)[C@@H](C)CN([C@H](C)CO)S3(=O)=O)cc1', 0.71),
  ('O=C1CN(S(=O)(=O)Cc2ccccc2)C[C@@H]2[C@@H](c3ccc(C#Cc4cccc(F)c4)cc3)[C@H](CO)N12', 1.20),
  ('C[C@@H]1CN([C@@H](C)CO)C(=O)Cc2cc(N(C)C)ccc2O[C@@H]1CN(C)Cc1ccc(C(=O)Nc2ccccc2N)cc1', 1.01);

* * *

System: human bronchial epithelial cells, CFTR corrector, plate reader
Experiment Summary: rescue of ΔF508 CFTR function, airway epithelium – human bronchial epithelial cells, plate reader, cherry-pick, two tests, dose response (AID 743267)
Measurement Context: measured here: test 2 replicate run
Endpoint Label: AC50 (µM)

INSERT INTO results (compound, target_entity, bound_sign, reading) VALUES
  ('CCN1CCN(c2cc(C)c3cc(NC(=O)c4ccc(OC)c(OC)c4)ccc3n2)CC1', 'human bronchial epithelial cells, CFTR corrector, plate reader', '=', 1.61),
  ('COc1cc(NC(=O)c2csc(N)n2)cc(C(=O)Nc2cccc(C(F)(F)F)c2)c1', 'human bronchial epithelial cells, CFTR corrector, plate reader', '=', 16),
  ('CC1(C)OC(c2ccccc2)=C/C(=C/C=C2C(=O)NC(=S)NC2=O)O1', 'human bronchial epithelial cells, CFTR corrector, plate reader', '=', 16.9),
  ('COc1ccc(C2=NOC(C(=O)NCc3ccc(F)cc3)C2)cc1OC (stereo not given)', 'human bronchial epithelial cells, CFTR corrector, plate reader', '=', 1.06),
  ('O=Nc1ccc(O)c2ncccc12', 'human bronchial epithelial cells, CFTR corrector, plate reader', '=', 3.57),
  ('CC(=O)Oc1ccc(N2C(=O)c3cccc4c([N+](=O)[O-])ccc(c34)C2=O)cc1', 'human bronchial epithelial cells, CFTR corrector, plate reader', '=', 20.6),
  ('COc1cc2c(C#CCCO)c(-c3ccsc3)oc(=O)c2cc1OC', 'human bronchial epithelial cells, CFTR corrector, plate reader', '=', 5.52),
  ('COc1cc(/C=C/C(=O)c2ccc3c(c2)OCO3)cc(Cl)c1O', 'human bronchial epithelial cells, CFTR corrector, plate reader', '=', 15.6),
  ('CN(CCOc1ccc(Cl)cc1)C(=O)c1cccc(S(=O)(=O)N2CCN(c3ccccc3)CC2)c1', 'human bronchial epithelial cells, CFTR corrector, plate reader', '=', 16),
  ('O=C1C=CN(C2OC(CO)C(O)C2O)C(=O)C1 (stereo not given)', 'human bronchial epithelial cells, CFTR corrector, plate reader', '>', 50);
